- System: NCI-H23 complex spheroids with HUVEC/MSC, viability
- EXPERIMENT: Anticancer human tumor NCI-H23 cell line growth inhibition [RAS]; active = viability on the fitted dose curve at most 10% of control; inactive = the rest;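 also: spheroids exposed to compound for 7 days; 100% = DMSO vehicle control viability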
- CONDITION: second compound 0.1 µM; first compound 0.01 µM
Outcome codes: active, inactive

MOLECULE	CATEGORY
O=C(c1ccc(F)c(F)c1Nc1ccc(I)cc1F)N1CC(O)([C@@H]2CCCCN2)C1 + C#Cc1c(F)ccc2cc(O)cc(-c3ncc4c(N5CC6CCC(C5)N6)nc(OCC56CCCN5CC(F)C6)nc4c3F)c12	inactive
Nc1ccn(C2OC(CO)C(O)C2(F)F)c(=O)n1 (stereo not drawn) + C#Cc1c(F)ccc2cc(O)cc(-c3ncc4c(N5CC6CCC(C5)N6)nc(OCC56CCCN5CC(F)C6)nc4c3F)c12	inactive
Nc1ccn(C2OC(CO)C(O)C2(F)F)c(=O)n1 (stereo not drawn) + C=CC(=O)N1CCN(c2nc(OCC3CCCN3C)nc3c(F)c(-c4nc(N)cc(C)c4C(F)(F)F)c(Cl)cc23)C(C)C1	active

====

Measured viability, T/C, listed per entry.
- Test system: NCI-H23 complex spheroids with HUVEC/MSC, viability
- EXPERIMENT: Anticancer human tumor NCI-H23 cell line growth inhibition [RAS];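 also: spheroids exposed to compound for 7 days; 100% = DMSO vehicle control viability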
- CONDITION: second compound 1 µM; first compound 0.00316 µM; hits give low values
- Text: RAS pathway inhibitors in Combinations in Complex Spheroids A high-throughput screen of multi-cell type tumor spheroids was designed to identify active combinations of RAS pathway inhibitors and targeted small molecules. Complex spheroids include a stromal component modeled by human endothelial cells (HUVEC) and fibroblasts modeled by human mesenchymal stem cells (MSCs). […] Compounds. […] If the clinical Cmax for an agent had not been determined, the highest concentration tested was 10 microM. […]

MOLECULE	viability, T/C / %
CC(C)n1nc(-c2ccc3oc(N)nc3c2)c2c(N)ncnc21 + C=CC(=O)N1CCN(c2nc(OCC3CCCN3C)nc3c(F)c(-c4nc(N)cc(C)c4C(F)(F)F)c(Cl)cc23)C(C)C1	32.2
Nc1ccn(C2OC(CO)C(O)C2(F)F)c(=O)n1 (stereo unspecified) + C=CC(=O)N1CCN(c2nc(OCC3CCCN3C)nc3c(F)c(-c4nc(N)cc(C)c4C(F)(F)F)c(Cl)cc23)C(C)C1	21.4
C=CC(=O)Nc1cc(Nc2nccc(-c3cn(C)c4ccccc34)n2)c(OC)cc1N(C)CCN(C)C + C=CC(=O)N1CCN(c2nc(OCC3CCCN3C)nc3c(F)c(-c4nc(N)cc(C)c4C(F)(F)F)c(Cl)cc23)C(C)C1	39.2
C=CC(=O)N1CCN(c2nc(OCC3CCCN3C)nc3c(F)c(-c4nc(N)cc(C)c4C(F)(F)F)c(Cl)cc23)C(C)C1 (stereo unspecified) + C#Cc1c(F)ccc2cc(O)cc(-c3ncc4c(N5CC6CCC(C5)N6)nc(OCC56CCCN5CC(F)C6)nc4c3F)c12	83.2
O=C(c1ccc(F)c(F)c1Nc1ccc(I)cc1F)N1CC(O)([C@@H]2CCCCN2)C1 + C=CC(=O)N1CCN(c2nc(OCC3CCCN3C)nc3c(F)c(-c4nc(N)cc(C)c4C(F)(F)F)c(Cl)cc23)C(C)C1	39
CCN1CCN(Cc2ccc(Nc3ncc(F)c(-c4cc(F)c5nc(C)n(C(C)C)c5c4)n3)nc2)CC1 + C=CC(=O)N1CCN(c2nc(OCC3CCCN3C)nc3c(F)c(-c4nc(N)cc(C)c4C(F)(F)F)c(Cl)cc23)C(C)C1	28.7
O=C(c1ccc(F)c(F)c1Nc1ccc(I)cc1F)N1CC(O)([C@@H]2CCCCN2)C1 + C#Cc1c(F)ccc2cc(O)cc(-c3ncc4c(N5CC6CCC(C5)N6)nc(OCC56CCCN5CC(F)C6)nc4c3F)c12	91.2
C=CC(=O)Nc1cc(Nc2nccc(-c3cn(C)c4ccccc34)n2)c(OC)cc1N(C)CCN(C)C + C#Cc1c(F)ccc2cc(O)cc(-c3ncc4c(N5CC6CCC(C5)N6)nc(OCC56CCCN5CC(F)C6)nc4c3F)c12	107
Nc1ccn(C2OC(CO)C(O)C2(F)F)c(=O)n1 (stereo unspecified) + C#Cc1c(F)ccc2cc(O)cc(-c3ncc4c(N5CC6CCC(C5)N6)nc(OCC56CCCN5CC(F)C6)nc4c3F)c12	74.8
CCN1CCN(Cc2ccc(Nc3ncc(F)c(-c4cc(F)c5nc(C)n(C(C)C)c5c4)n3)nc2)CC1 + C#Cc1c(F)ccc2cc(O)cc(-c3ncc4c(N5CC6CCC(C5)N6)nc(OCC56CCCN5CC(F)C6)nc4c3F)c12	81.2
CC(C)n1nc(-c2ccc3oc(N)nc3c2)c2c(N)ncnc21 + C#Cc1c(F)ccc2cc(O)cc(-c3ncc4c(N5CC6CCC(C5)N6)nc(OCC56CCCN5CC(F)C6)nc4c3F)c12	72.8

====

- System: NCI-H23 complex spheroids with HUVEC/MSC, viability
- EXPERIMENT: Anticancer human tumor NCI-H23 cell line growth inhibition [RAS];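 also: spheroids exposed to compound for 7 days; 100% = DMSO vehicle control viability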
- CONDITION: second compound 0.316 µM; first compound 0.1 µM; hits give low values
Doc: threshold 60% (exclusive). Items with viability, T/C beneath it return 1; others return 0.

MOLECULE	CATEGORY
O=C(c1ccc(F)c(F)c1Nc1ccc(I)cc1F)N1CC(O)([C@@H]2CCCCN2)C1 + C#Cc1c(F)ccc2cc(O)cc(-c3ncc4c(N5CC6CCC(C5)N6)nc(OCC56CCCN5CC(F)C6)nc4c3F)c12	1
CCN1CCN(Cc2ccc(Nc3ncc(F)c(-c4cc(F)c5nc(C)n(C(C)C)c5c4)n3)nc2)CC1 + C#Cc1c(F)ccc2cc(O)cc(-c3ncc4c(N5CC6CCC(C5)N6)nc(OCC56CCCN5CC(F)C6)nc4c3F)c12	1
Cc1nc(N2CCC3(CC2)COC(C)C3N)c(CO)nc1Sc1ccnc(N)c1Cl (centres undefined) + C=CC(=O)N1CCN(c2nc(OCC3CCCN3C)nc3c(F)c(-c4nc(N)cc(C)c4C(F)(F)F)c(Cl)cc23)C(C)C1	1
CC(Nc1ccc2c(c1)OCCn1cc(N3C(=O)OCC3C(F)F)nc1-2)C(N)=O (centres undefined) + C=CC(=O)N1CCN(c2nc(OCC3CCCN3C)nc3c(F)c(-c4nc(N)cc(C)c4C(F)(F)F)c(Cl)cc23)C(C)C1	1
C[C@@H](NC(=O)c1ncnc(N)c1Cl)c1ncc(C(=O)Nc2cc(C(F)(F)F)c(Cl)cn2)s1 + C#Cc1c(F)ccc2cc(O)cc(-c3ncc4c(N5CC6CCC(C5)N6)nc(OCC56CCCN5CC(F)C6)nc4c3F)c12	0
CC1(O)CCCC1n1c(=O)c(C(F)F)cc2cnc(NC3CCN(S(C)(=O)=O)CC3)nc21 (centres undefined) + C=CC(=O)N1CCN(c2nc(OCC3CCCN3C)nc3c(F)c(-c4nc(N)cc(C)c4C(F)(F)F)c(Cl)cc23)C(C)C1	1
CC(C)NCC(C(=O)N1CCN(c2ncnc3c2C(C)CC3O)CC1)c1ccc(Cl)cc1 (centres undefined) + C#Cc1c(F)ccc2cc(O)cc(-c3ncc4c(N5CC6CCC(C5)N6)nc(OCC56CCCN5CC(F)C6)nc4c3F)c12	0
CC(=O)OC12COC1CC(O)C1(C)C(=O)C(O)C3=C(C)C(OC(=O)C(O)C(NC(=O)OC(C)(C)C)c4ccccc4)CC(O)(C(OC(=O)c4ccccc4)C21)C3(C)C (centres undefined) + C=CC(=O)N1CCN(c2nc(OCC3CCCN3C)nc3c(F)c(-c4nc(N)cc(C)c4C(F)(F)F)c(Cl)cc23)C(C)C1	1
NC1c2ccccc2OC12CCN(c1cnc3c(N4CCCc5ncccc54)n[nH]c3n1)CC2 (centres undefined) + C#Cc1c(F)ccc2cc(O)cc(-c3ncc4c(N5CC6CCC(C5)N6)nc(OCC56CCCN5CC(F)C6)nc4c3F)c12	1

====

- Test system: NCI-H23 complex spheroids with HUVEC/MSC, viability
- EXPERIMENT: Anticancer human tumor NCI-H23 cell line growth inhibition [RAS]; active means viability on the fitted dose curve at most 10% of control; inactive means the rest;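 also: spheroids exposed to compound for 7 days; 100% = DMSO vehicle control viability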
- CONDITION: second compound 0.316 µM; first compound 0.0316 µM
Outcome codes: active, inactive

COMPOUND	CATEGORY
C[C@@H](NC(=O)c1ncnc(N)c1Cl)c1ncc(C(=O)Nc2cc(C(F)(F)F)c(Cl)cn2)s1 + C#Cc1c(F)ccc2cc(O)cc(-c3ncc4c(N5CC6CCC(C5)N6)nc(OCC56CCCN5CC(F)C6)nc4c3F)c12	inactive
CC(=O)OC12COC1CC(O)C1(C)C(=O)C(O)C3=C(C)C(OC(=O)C(O)C(NC(=O)OC(C)(C)C)c4ccccc4)CC(O)(C(OC(=O)c4ccccc4)C21)C3(C)C (stereo not given) + C=CC(=O)N1CCN(c2nc(OCC3CCCN3C)nc3c(F)c(-c4nc(N)cc(C)c4C(F)(F)F)c(Cl)cc23)C(C)C1	inactive
Nc1ccn(C2OC(CO)C(O)C2(F)F)c(=O)n1 (stereo not given) + C#Cc1c(F)ccc2cc(O)cc(-c3ncc4c(N5CC6CCC(C5)N6)nc(OCC56CCCN5CC(F)C6)nc4c3F)c12	active
CC(C)n1nc(-c2ccc3oc(N)nc3c2)c2c(N)ncnc21 + C#Cc1c(F)ccc2cc(O)cc(-c3ncc4c(N5CC6CCC(C5)N6)nc(OCC56CCCN5CC(F)C6)nc4c3F)c12	inactive
O=C(c1ccc(F)c(F)c1Nc1ccc(I)cc1F)N1CC(O)([C@@H]2CCCCN2)C1 + C#Cc1c(F)ccc2cc(O)cc(-c3ncc4c(N5CC6CCC(C5)N6)nc(OCC56CCCN5CC(F)C6)nc4c3F)c12	inactive
